# TGT: Human cGAS amino acids 155-522 (Homo sapiens (Human), UniProt Q8N884)
# Sequence (Q8N884 157-522): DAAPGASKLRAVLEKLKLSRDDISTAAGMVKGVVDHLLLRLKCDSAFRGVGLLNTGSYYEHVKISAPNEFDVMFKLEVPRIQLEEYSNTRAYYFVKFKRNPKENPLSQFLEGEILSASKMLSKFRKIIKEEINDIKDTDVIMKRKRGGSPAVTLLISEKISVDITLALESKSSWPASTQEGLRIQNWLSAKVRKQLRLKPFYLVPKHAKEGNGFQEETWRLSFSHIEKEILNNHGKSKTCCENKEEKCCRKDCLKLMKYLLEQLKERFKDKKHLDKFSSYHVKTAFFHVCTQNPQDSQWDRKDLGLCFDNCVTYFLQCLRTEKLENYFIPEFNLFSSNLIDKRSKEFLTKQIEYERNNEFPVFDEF
# PROTOCOL: cGAS biochemical activity assay (ATP remaining, Kinase-Glo Max luminescence)
# EXPERIMENTAL_CONTEXT: human cGAS 155-522, ATP remaining (Kinase-Glo Max); read-out: cGAS IC50
Attribute: IC50

Known results for molecules:
1) COc1cccc2oc(-c3c(C4=CCC(C(=O)O)CC4)[nH]c4c(-c5ccccc5)c(C(F)(F)F)nn4c3=O)nc12 (stereo not drawn) | < 20 µM
2) Cc1[nH]c2c(-c3ccccc3)c(C#N)nn2c(=O)c1-c1nc2c(N)cccc2o1 | < 20 µM
3) Cc1[nH]c2c(-c3ccccc3)c(C#N)nn2c(=O)c1-c1nc2cnccc2o1 | < 20 µM
4) Cc1[nH]c2c(-c3ccccc3)c(C(F)(F)F)nn2c(=O)c1-c1nnc(C2CCN(S(C)(=O)=O)CC2)o1 | 20 to 250 µM
5) Cc1[nH]c2c(-c3ccccc3)c(C(F)(F)F)nn2c(=O)c1C1=N[C@@H](C(=O)O)[C@H](C)O1 | < 20 µM
6) COc1cccc2oc(-c3c(C(F)(F)F)[nH]c4c(-c5ccccc5)c(C(F)(F)F)nn4c3=O)nc12 | < 20 µM
7) COc1cccc2oc(-c3c(C(=O)N(C)CC(=O)O)[nH]c4c(-c5ccccc5)c(C(F)(F)F)nn4c3=O)nc12 | 20 to 250 µM
8) Cc1[nH]c2c(-c3ccccc3)c(C(F)(F)F)nn2c(=O)c1C(=O)Nc1ccncc1 | 20 to 250 µM
9) Cc1[nH]c2c(-c3ccccc3)c(C(F)(F)F)nn2c(=O)c1C(N)=O | 20 to 250 µM
10) CC(=O)NCCc1c(C)[nH]c2c(-c3ccccc3)c(C(F)(F)F)nn2c1=O | 20 to 250 µM

IC50 in this record for COc1cccc2oc(-c3c(C)[nH]c4c(-c5ccccc5)nnn4c3=O)nc12 : < 20 µM

Reported IC50 ( COc1cccc2oc(-c3c(C(=O)NCCN(C)C)[nH]c4c(-c5ccccc5)c(C(F)(F)F)nn4c3=O)nc12 ) = 20 to 250 µM

Entry Cc1[nH]c2c(-c3ccccc3)c(C(F)(F)F)nn2c(=O)c1C(=O)NS(=O)(=O)c1ccccn1 , IC50 reported as < 20 µM

response.value for COc1cncc(NC(=O)c2c(C)[nH]c3c(-c4ccccc4)c(C(F)(F)F)nn3c2=O)c1 (field: IC50) = < 20 µM

Field IC50 (entry COc1nccnc1NC(=O)c1c(C)[nH]c2c(-c3ccccc3)c(C(F)(F)F)nn2c1=O ) reads 20 to 250 µM

====

# TGT: Human cGAS amino acids 155-522 (Homo sapiens (Human), UniProt Q8N884)
# PROTOCOL: cGAS biochemical activity assay (ATP remaining, Kinase-Glo Max luminescence)
# EXPERIMENTAL_CONTEXT: human cGAS 155-522, ATP remaining (Kinase-Glo Max); read-out: cGAS IC50
pIC50: −log10 of the molar value.
pIC50 by entry:

Use these answered entries as a reference point.
1. Cc1[nH]c2c(-c3ccccc3)c(C(F)(F)F)nn2c(=O)c1C(=O)Nc1ccccc1NS(=O)(=O)c1ccccc1 | > 4.70
2. COc1ccnc2oc(-c3c(C)[nH]c4c(-c5ccccc5)c(C(F)(F)F)nn4c3=O)nc12 | > 4.70
3. COc1cccc(NCCc2c(C)[nH]c3c(-c4ccccc4)c(C(F)(F)F)nn3c2=O)c1 | > 4.70
4. Cc1[nH]c2c(-c3ccccc3)c(C(F)(F)F)nn2c(=O)c1-c1nc2c(o1)CCCC2 | < 3.60
5. CO[C@H]1CCCCC1c1nnc(-c2c(C)[nH]c3c(-c4ccccc4)c(C(F)(F)F)nn3c2=O)o1 (some centres unmarked) | > 4.70

Value of measured pIC50 for the entry COc1ccc(C(=O)O)c2oc(-c3c(C)[nH]c4c(-c5ccccc5)c(C(F)(F)F)nn4c3=O)nc12 : > 4.70

get_value(item= Cc1[nH]c2c(-c3ccccc3)c(C(F)(F)F)nn2c(=O)c1-c1nnc([C@@H]2CCCOC2)o1 , readout=pIC50) returns > 4.70

====

pIC50 reference
# TGT: Human cGAS amino acids 155-522 (Homo sapiens (Human))
# PROTOCOL: cGAS biochemical activity assay (ATP remaining, Kinase-Glo Max luminescence)
# EXPERIMENTAL_CONTEXT: human cGAS 155-522, ATP remaining (Kinase-Glo Max); read-out: cGAS IC50
pIC50: −log10 of the molar value.

Solved cases below.
1. COc1ccc(-c2nnc(Cc3c(C)[nH]c4c(-c5ccccc5)c(C(F)(F)F)nn4c3=O)o2)cc1 | 3.60 to 4.70
2. COc1ccc2oc(-c3c(C)[nH]c4c(-c5ccccc5)c(C(F)(F)F)nn4c3=O)nc2c1 | < 3.60
3. Cc1[nH]c2c(-c3ccccc3)c(C(F)(F)F)nn2c(=O)c1-c1nnc(C2CCCC2)o1 | > 4.70
4. Cc1[nH]c2c(-c3ccccc3)c(C(F)(F)F)nn2c(=O)c1C(=O)Nc1ccccc1NS(=O)(=O)C1CCCCC1 | 3.60 to 4.70
5. COc1ncccc1NC(=O)c1c(C)[nH]c2c(-c3ccccc3)c(C(F)(F)F)nn2c1=O | 3.60 to 4.70
6. Cc1[nH]c2c(-c3ccccc3)c(C(F)(F)F)nn2c(=O)c1-c1nc2ccccc2c(=O)[nH]1 | > 4.70
7. COCc1[nH]c2c(-c3ccccc3)c(C(F)(F)F)nn2c(=O)c1-c1nc2c(OC)cccc2o1 | > 4.70
8. Cc1[nH]c2c(-c3ccccc3)c(C(F)(F)F)nn2c(=O)c1-c1nc2c(OC(C)C)cccc2o1 | > 4.70

Sure, the documented pIC50 for COc1c(Cl)ccc2oc(-c3c(C)[nH]c4c(-c5ccccc5)c(C#N)nn4c3=O)nc12 is > 4.70

Looking up COc1cccc(NC(=O)c2c(C)[nH]c3c(-c4ccccc4)c(C(F)(F)F)nn3c2=O)c1OC , I see its pIC50 listed as 3.60 to 4.70

====

Entries and their IC50 values follow.
# TGT: Human cGAS amino acids 155-522 (Homo sapiens (Human), UniProt Q8N884)
# PROTOCOL: cGAS biochemical activity assay (ATP remaining, Kinase-Glo Max luminescence)
# EXPERIMENTAL_CONTEXT: human cGAS 155-522, ATP remaining (Kinase-Glo Max); read-out: cGAS IC50

1) Cc1[nH]c2c(-c3ccccc3)c(C(F)(F)F)nn2c(=O)c1-c1nnc(C2CCOC2)o1 (stereo not shown) [Compound D1013] | 20 to 250 µM
2) Cc1ccccc1NC(=O)c1c(C)[nH]c2c(-c3ccccc3)c(C(F)(F)F)nn2c1=O [Compound A1037] | 20 to 250 µM
3) COc1cccc2oc(-c3c(C)[nH]c4c(-c5ccccc5)c(OC5CCOCC5)nn4c3=O)nc12 [Compound C1080] | 20 to 250 µM

Now take the following compound into account.
The measured IC50 associated with Cc1nn2c(=O)c(-c3nc4c(o3)CCCC4)c(C)[nH]c2c1-c1ccccc1 [Compound C1032] reads < 20 µM

====

This listing pairs compounds with measured IC50.
# TGT: Human cGAS amino acids 155-522 (Homo sapiens (Human))
# PROTOCOL: cGAS biochemical activity assay (ATP remaining, Kinase-Glo Max luminescence)
# EXPERIMENTAL_CONTEXT: human cGAS 155-522, ATP remaining (Kinase-Glo Max); read-out: cGAS IC50

# annotated cases, reported IC50 shown
1) Cc1[nH]c2c(-c3ccccc3)c(C(F)(F)F)nn2c(=O)c1C(=O)N1CCOCC1 [Compound A1004] | > 250 µM
2) Cc1[nH]c2c(-c3ccccc3)c(C(F)(F)F)nn2c(=O)c1-c1nnc(-c2ccccc2)o1 [Compound D1011] | > 250 µM
3) Cc1[nH]c2c(-c3ccccc3)c(C(F)(F)F)nn2c(=O)c1C(=O)Nc1ccccc1OC(C)C [Compound A1060] | 20 to 250 µM

Read the next record carefully.
Lab note: measured IC50 of Cc1[nH]c2c(-c3ccccc3)c(C(F)(F)F)nn2c(=O)c1-c1nc2c(Cl)cccc2o1 [Compound C1055] was < 20 µM

====

# TGT: Human cGAS amino acids 155-522 (Homo sapiens (Human), UniProt Q8N884)
# PROTOCOL: cGAS biochemical activity assay (ATP remaining, Kinase-Glo Max luminescence)
# EXPERIMENTAL_CONTEXT: human cGAS 155-522, ATP remaining (Kinase-Glo Max); read-out: cGAS IC50
pIC50: −log10 of the molar value.
The reader will find reported pIC50 values listed item by item below.

Sample COc1ccc2[nH]c(-c3c(C)[nH]c4c(-c5ccccc5)c(C(F)(F)F)nn4c3=O)nc2c1 ; pIC50 observed: > 4.70
